DC50 values for the compounds below.
Molecular target: IRAK4 (Homo sapiens, UniProt Q9NWZ3)
Construct: Degradation of IRAK4 in OCI-LY10 was quantitatively measured using Meso Scale Discovery technology; endogenous in cells; host or cells: OCI-LY10
Sequence (Q9NWZ3 1-460): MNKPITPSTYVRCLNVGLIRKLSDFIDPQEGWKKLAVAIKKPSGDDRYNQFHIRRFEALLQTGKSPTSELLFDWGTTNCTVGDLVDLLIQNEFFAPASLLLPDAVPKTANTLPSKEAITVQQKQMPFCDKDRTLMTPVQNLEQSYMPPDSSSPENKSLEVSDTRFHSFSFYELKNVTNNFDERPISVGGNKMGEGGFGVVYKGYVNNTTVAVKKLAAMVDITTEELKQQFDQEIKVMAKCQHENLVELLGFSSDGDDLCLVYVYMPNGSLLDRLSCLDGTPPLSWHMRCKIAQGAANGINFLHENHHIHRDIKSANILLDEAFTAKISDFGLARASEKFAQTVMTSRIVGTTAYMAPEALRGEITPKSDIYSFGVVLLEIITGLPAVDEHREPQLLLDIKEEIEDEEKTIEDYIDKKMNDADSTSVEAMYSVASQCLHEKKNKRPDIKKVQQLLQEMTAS
Experiment: IRAK4 MSD Degradation in OCI-LY10
Format: cell-based
Conditions: OCI-LY10 cells, 24 hrs incubation, MSD; read-out: IRAK4 degradation in OCI-LY10 at 24 hrs: DC50

Some compounds with recorded DC50:
[[record]]
compound = "Cn1c(=O)n(C2CCC(=O)NC2=O)c2cccc([C@H]3C[C@@H](OC4CCN(C[C@H]5CC[C@H](n6cc(NC(=O)c7cnn8ccc(N9C[C@H]%10C[C@@H]9CO%10)nc78)c(C(F)F)n6)CC5)CC4)C3)c21 (stereo partly shown) [I-81]"
recorded_measurement = "> 200 nM"

[[record]]
compound = "Cn1c(=O)n(C2CCC(=O)NC2=O)c2cccc(C#CCN3CCC(C[C@H]4CC[C@H](n5cc6cc(NC(=O)c7cccc(C(F)(F)F)n7)ncc6n5)CC4)CC3)c21 (stereo partly shown) [I-759]"
recorded_measurement = "> 200 nM"

[[record]]
compound = "Cc1cc2nn([C@H]3CC[C@H](CN4CCC(c5cccc6c5n(C)c(=O)n6C5CCC(=O)NC5=O)C(F)C4)CC3)cc2cc1NC(=O)c1cccc(C(F)(F)F)n1 (stereo partly shown) [I-550]"
recorded_measurement = "< 10 nM"

[[record]]
compound = "CN1CCC(c2ccn3ncc(C(=O)Nc4cn([C@H]5CC[C@H](CN6CCN(CC#Cc7cccc8c7n(C)c(=O)n8C7CCC(=O)NC7=O)CC6)CC5)nc4C(F)F)c3n2)C(F)(F)C1 (stereo partly shown) [I-413]"
recorded_measurement = "> 200 nM"

[[record]]
compound = "Cn1c(=O)n(C2CCC(=O)NC2=O)c2cccc(OC3CCN([C@H]4CC[C@H](n5cc(NC(=O)c6cnn7ccc(N8C[C@H]9C[C@@H]8CO9)nc67)c(C(F)F)n5)CC4)CC3)c21 (stereo partly shown) [I-739]"
recorded_measurement = "< 10 nM"


IN: // fetch DC50 given entry Cn1c(=O)n(C2CCC(=O)NC2=O)c2cccc(C#CCOC3CCN(C[C@H]4CC[C@H](n5cc(NC(=O)c6ccn7ccc(N8C[C@@H]9C[C@H]8CO9)nc67)c(C(F)F)n5)CC4)CC3)c21 (stereo partly shown) [I-232]
OUT: > 200 nM

IN: Note down DC50 recorded for Cn1c(=O)n(C2CCC(=O)NC2=O)c2cccc(C#CCN3CCN(C[C@H]4CC[C@H](n5cc(NC(=O)c6cnn7ccc(N8CCC(F)(F)CC8)nc67)c(C(F)F)n5)CC4)CC3)c21 (stereo partly shown) [I-434]
OUT: < 10 nM

IN: Recall and state the measured DC50 for COc1cc2nn([C@H]3CC[C@H](CN4CCC5(CC4)CCN(c4cccc6c4n(C)c(=O)n6C4CCC(=O)NC4=O)CC5)CC3)cc2cc1NC(=O)c1cncc(C(F)(F)F)c1 (stereo partly shown) [I-92] .
OUT: > 200 nM

IN: Look up and state reported DC50 for Cn1c(=O)n(C2CCC(=O)NC2=O)c2cccc(C#CCO[C@@H]3CCN(C[C@H]4CC[C@H](n5cc(NC(=O)c6cnn7ccc(N8C[C@H]9C[C@@H]8CO9)nc67)c(C(F)F)n5)CC4)C[C@@H]3F)c21 (stereo partly shown) [I-35]
OUT: > 200 nM

IN: State its DC50: Cc1ccc(-c2nn([C@H]3CC[C@H](CN4CCN(CC#Cc5cccc6c5n(C)c(=O)n6C5CCC(=O)NC5=O)CC4)CC3)cc2NC(=O)c2cncc(C#N)c2)nc1 (stereo partly shown) [I-269]
OUT: > 200 nM

----------
Target: IRAK4 (Homo sapiens)
Construct: Degradation of IRAK4 in OCI-LY10 was quantitatively measured using Meso Scale Discovery technology; endogenous in cells; host or cells: OCI-LY10
Experiment: IRAK4 MSD Degradation in OCI-LY10
Assay type: cell-based
Conditions: OCI-LY10 cells, 4 hrs incubation, MSD; read-out: IRAK4 degradation in OCI-LY10 at 4 hrs: DC50
measure_name: DC50

Recorded DC50, per entry:
[[record]]
molecule = "Cn1c(=O)n(C2CCC(=O)NC2=O)c2cccc(N3CCN(C4CCN([C@H]5CC[C@@H](n6cc(NC(=O)c7cnn8ccc(N9C[C@H]%10C[C@@H]9CO%10)nc78)c(C(F)F)n6)CC5)CC4)CC3)c21 (single isomer, unassigned) [I-425]"
experimental_target = "IRAK4 (Homo sapiens)"
measure_name = "DC50"
recorded_measurement = "< 10 nM"

[[record]]
molecule = "Cn1c(=O)n(C2CCC(=O)NC2=O)c2cccc(N3CCC(CN4CCN(C[C@H]5CC[C@H](n6cc(NC(=O)c7cnn8ccc(N9C[C@@H]%10C[C@H]9CO%10)nc78)c(C(F)F)n6)CC5)CC4)CC3)c21 (stereo partly drawn) [I-158]"
experimental_target = "IRAK4 (Homo sapiens)"
measure_name = "DC50"
recorded_measurement = "< 10 nM"


Query molecule follows.
IN: Check the records and state DC50 for Cn1c(=O)n(C2CCC(=O)NC2=O)c2cccc([C@H]3CCN(C[C@H]4CC[C@H](n5cc6cc(NC(=O)c7cccc(C#N)n7)ncc6n5)CC4)C[C@H]3F)c21 (stereo partly drawn) [I-639]
OUT: > 200 nM

----------
Reported DC50 values follow for various molecules
Biological target: IRAK4 (Homo sapiens, UniProt Q9NWZ3)
Construct: Degradation of IRAK4 in OCI-LY10 was quantitatively measured using Meso Scale Discovery technology; endogenous in cells; host or cells: OCI-LY10
Sequence (Q9NWZ3 1-460): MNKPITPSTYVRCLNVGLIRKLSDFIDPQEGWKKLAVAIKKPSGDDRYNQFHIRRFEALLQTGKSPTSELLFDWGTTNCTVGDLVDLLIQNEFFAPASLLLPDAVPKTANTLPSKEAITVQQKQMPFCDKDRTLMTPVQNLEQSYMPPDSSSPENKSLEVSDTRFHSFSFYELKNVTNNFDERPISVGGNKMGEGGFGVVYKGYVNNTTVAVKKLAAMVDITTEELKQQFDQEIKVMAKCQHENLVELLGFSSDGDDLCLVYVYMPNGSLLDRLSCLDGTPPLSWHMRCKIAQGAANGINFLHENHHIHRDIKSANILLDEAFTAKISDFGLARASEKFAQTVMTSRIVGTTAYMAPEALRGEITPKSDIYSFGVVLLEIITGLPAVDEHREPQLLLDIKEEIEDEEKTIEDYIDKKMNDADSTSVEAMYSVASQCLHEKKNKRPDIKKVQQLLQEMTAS
Assay: IRAK4 MSD Degradation in OCI-LY10
Type: cell-based
Conditions: OCI-LY10 cells, 4 hrs incubation, MSD; read-out: IRAK4 degradation in OCI-LY10 at 4 hrs: DC50

Consider the following illustrative entries.
[[record]]
molecule = "C[C@H]1CN(C[C@H]2CC[C@H](n3cc(NC(=O)c4cnn5ccc(N6C[C@H]7C[C@@H]6CO7)nc45)c(C(F)F)n3)CC2)CC[C@@H]1OCC#Cc1cccc2c1n(C)c(=O)n2C1CCC(=O)NC1=O (stereo partly shown) [I-25]"
recorded_measurement = "0.01 to 0.1 µM"

[[record]]
molecule = "Cn1c(=O)n(C2CCC(=O)NC2=O)c2cccc(C#CCOC3C4CC3CN(C[C@H]3CC[C@H](n5cc(NC(=O)c6cnn7ccc(N8C[C@H]9C[C@@H]8CO9)nc67)c(C(F)F)n5)CC3)C4)c21 (stereo partly shown) [I-30]"
recorded_measurement = "0.01 to 0.1 µM"

[[record]]
molecule = "CC1CCN(c2ccn3ncc(C(=O)Nc4cn([C@H]5CC[C@H](CN(C)C6CCN(c7cccc8c7n(C)c(=O)n8C7CCC(=O)NC7=O)CC6(F)F)CC5)nc4C(F)F)c3n2)CC1 (stereo partly shown) [I-520]"
recorded_measurement = "> 0.2 µM"

[[record]]
molecule = "Cn1c(=O)n(C2CCC(=O)NC2=O)c2cccc(C#CCN3CCN(C[C@H]4CC[C@H](n5cc(NC(=O)c6cnn7ccc(N8CCSCC8)nc67)c(C(F)F)n5)CC4)CC3)c21 (stereo partly shown) [I-294]"
recorded_measurement = "> 0.2 µM"

[[record]]
molecule = "Cn1c(=O)n(C2CCC(=O)NC2=O)c2cccc([C@H]3C[C@@H](OC4CCN(C[C@H]5CC[C@H](n6cc(NC(=O)c7cnn8ccc(N9C[C@H]%10C[C@@H]9CO%10)nc78)c(C(F)F)n6)CC5)CC4)C3)c21 (stereo partly shown) [I-81]"
recorded_measurement = "< 0.01 µM"


IN: Indicate the recorded DC50 value for this molecule: O=C1CCN(c2cccc(C#CCOC3CCN(C[C@H]4CC[C@H](n5cc(NC(=O)c6cnn7ccc(N8C[C@H]9C[C@@H]8CO9)nc67)c(C(F)F)n5)CC4)CC3)c2)C(=O)N1 [I-209]
OUT: > 0.2 µM

IN: Identify DC50 associated with the molecule Cn1c(=O)n(C2CCC(=O)NC2=O)c2cccc(C3CCN(C[C@H]4CC[C@H](n5cc6cc(NC(=O)c7cccc(C(F)(F)F)n7)ncc6n5)CC4)CC3(F)F)c21 (stereo partly shown) [I-447]
OUT: > 0.2 µM

IN: State, in one line, measured DC50 of COc1cc2nn([C@H]3CC[C@H](CN4CCC5(CC4)CCN(c4cccc6c4n(C)c(=O)n6C4CCC(=O)NC4=O)CC5)CC3)cc2cc1NC(=O)c1cncc(OC(F)F)c1 (stereo partly shown) [I-148]
OUT: 0.01 to 0.1 µM

IN: Supply recorded DC50 for Cn1c(=O)n(C2CCC(=O)NC2=O)c2cccc(N3CCN(C4CCN([C@H]5CC[C@H](n6cc(NC(=O)c7cnn8ccc(N9C[C@H]%10C[C@@H]9CO%10)nc78)c(C(F)F)n6)CC5)CC4)CC3)c21 (single isomer, unassigned) [I-201] here.
OUT: < 0.01 µM

IN: Let me know recorded DC50 for Cn1c(=O)n(C2CCC(=O)NC2=O)c2cccc(C3CCN(C[C@H]4CC[C@H](n5cc6cc(NC(=O)c7cccc(C(F)(F)F)n7)c(C(F)F)cc6n5)CC4)CC3(F)F)c21 (stereo partly shown) [I-443] , thanks.
OUT: > 0.2 µM
